Source: ChEMBL document CHEMBL1961873

List of inhibition values.
Test system: Mast/stem cell growth factor receptor Kit (Homo sapiens), P10721 [D816V]
Sequence (P10721 whole entry D816V): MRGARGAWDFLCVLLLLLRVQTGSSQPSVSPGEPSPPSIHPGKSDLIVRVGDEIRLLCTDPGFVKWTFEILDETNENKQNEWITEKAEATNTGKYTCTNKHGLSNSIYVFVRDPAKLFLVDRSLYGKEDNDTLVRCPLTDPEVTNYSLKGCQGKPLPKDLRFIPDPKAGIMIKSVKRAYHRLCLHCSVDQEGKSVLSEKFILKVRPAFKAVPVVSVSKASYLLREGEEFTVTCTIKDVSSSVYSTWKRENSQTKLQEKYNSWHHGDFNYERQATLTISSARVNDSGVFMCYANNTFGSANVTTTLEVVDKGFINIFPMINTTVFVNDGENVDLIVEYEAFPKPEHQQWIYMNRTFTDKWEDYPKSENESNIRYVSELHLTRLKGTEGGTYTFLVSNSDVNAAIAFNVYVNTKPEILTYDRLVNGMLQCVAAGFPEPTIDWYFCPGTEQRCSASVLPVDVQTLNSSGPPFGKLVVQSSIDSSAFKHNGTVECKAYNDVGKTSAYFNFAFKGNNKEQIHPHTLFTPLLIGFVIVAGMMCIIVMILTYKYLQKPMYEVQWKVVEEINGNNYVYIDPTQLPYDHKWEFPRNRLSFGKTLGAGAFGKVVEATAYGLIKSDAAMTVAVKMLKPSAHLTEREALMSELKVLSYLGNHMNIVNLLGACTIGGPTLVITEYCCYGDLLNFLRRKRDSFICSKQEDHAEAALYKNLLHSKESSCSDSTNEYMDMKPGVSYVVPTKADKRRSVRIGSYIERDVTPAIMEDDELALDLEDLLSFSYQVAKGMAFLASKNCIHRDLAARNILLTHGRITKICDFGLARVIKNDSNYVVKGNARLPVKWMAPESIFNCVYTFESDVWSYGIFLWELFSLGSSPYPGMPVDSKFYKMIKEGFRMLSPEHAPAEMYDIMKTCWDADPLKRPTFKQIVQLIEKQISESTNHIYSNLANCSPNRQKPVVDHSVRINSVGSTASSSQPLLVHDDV
Conditions: at 0.1 µM
Provide only the numeric value, understood in %.

Recorded inhibition, per entry:
# compound, inhibition / %
records = [
    ("Fc1cccc(COc2ccc(Nc3ncnc4cc(-c5ccc[nH]5)sc34)cc2Cl)c1", 0.67),
    ("O=C1Nc2ccc(C(=O)c3ccco3)cc2C1=Cc1cc(Cl)c(O)c(Cl)c1", 1.83),
    ("COc1ccc(COc2ccc(Cc3cnc(N)nc3N)cc2OC)cc1", -2.58),
    ("COc1cc2ncn(-c3cc(OCc4ccccc4Cl)c(C(N)=O)s3)c2cc1OC", 0.27),
    ("Nc1nc(-c2ccccn2)c(-c2ccc3ncccc3n2)s1", 3.62),
]

Task item: Need inhibition of CS(=O)(=O)CCNCc1nc(-c2ccc3ncnc(Nc4ccc(F)c(Cl)c4)c3c2)cs1 , thanks.
Reply: 3.12

Task item: Need inhibition of CN1CCC(C(=O)Nc2n[nH]c3nnc(-c4ccccc4)cc23)CC1 , thanks.
Reply: 7.35

Task item: Need inhibition of COc1cc(C)c(NC(=O)CN(C)C)cc1Nc1nc(Nc2cccc(F)c2C(N)=O)c2cc[nH]c2n1 , thanks.
Reply: 2.88

Task item: Need inhibition of CC1=C(C(=O)Nc2ccc3[nH]ncc3c2)C(c2ccc(F)cc2)NC(=O)N1 (stereo not given) , thanks.
Reply: 0.52

Task item: Need inhibition of Cc1nn(C)c2cc(N(C)c3ccnc(Nc4cccc(S(N)(=O)=O)c4)n3)ccc12 , thanks.
Reply: 2.13
